Attribution: patent US20200002414A1

Target: T1, human Ror2 (human, UniProt Q01974 34-403, limits assumed)
T1 construct: also called hROR2; receptor tyrosine kinase-like orphan receptor 2
T1 sequence (Q01974 34-403 limits assumed): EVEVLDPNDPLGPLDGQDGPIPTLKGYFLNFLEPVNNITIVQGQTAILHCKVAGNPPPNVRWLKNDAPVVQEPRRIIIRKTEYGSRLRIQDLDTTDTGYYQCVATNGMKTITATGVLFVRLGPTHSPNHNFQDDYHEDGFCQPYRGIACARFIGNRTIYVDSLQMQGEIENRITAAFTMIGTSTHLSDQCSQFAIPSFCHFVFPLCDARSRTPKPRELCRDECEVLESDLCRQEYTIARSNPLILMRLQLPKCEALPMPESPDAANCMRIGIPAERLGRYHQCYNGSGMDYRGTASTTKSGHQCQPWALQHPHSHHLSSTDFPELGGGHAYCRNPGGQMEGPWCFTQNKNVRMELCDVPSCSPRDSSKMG
Test: ELISA, human Ror2, pH 6.0; also: unit not given here
Endpoint Label: Affinity ELISA pH 6.0
Reply: number alone, nothing else.

HC-G050S (antibody, V domains shown) VH: EVQLQQSGPELVKPGASVKISCKTSGYTFTEYTMHWMKQSHRKSLEWIGSINTNNGGTGYNQKFKGKATLTVDKSSSTAYMELRSLTSEDSAVYFCARGSLYSYGNSYFDYWGQGTLVTVSS VL: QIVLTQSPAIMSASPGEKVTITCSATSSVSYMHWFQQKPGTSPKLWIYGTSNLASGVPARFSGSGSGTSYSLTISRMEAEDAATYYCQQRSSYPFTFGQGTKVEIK ... 0.823

GET /values?readout=Affinity ELISA pH 6.0&item= HC-T033C (antibody, V domains shown) VH: EVQLQQSGPELVKPGASVKISCKTSGYTFTEYCMHWMKQSHRKSLEWIGGINTNNGGTGYNQKFKGKATLTVDKSSSTAYMELRSLTSEDSAVYFCARGSLYSYGNSYFDYWGQGTLVTVSS VL: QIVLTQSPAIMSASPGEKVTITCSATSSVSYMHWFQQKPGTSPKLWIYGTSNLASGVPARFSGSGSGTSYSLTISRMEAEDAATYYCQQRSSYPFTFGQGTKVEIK 0.626

Moving on to HC-N052V (antibody, V domains shown) VH: EVQLQQSGPELVKPGASVKISCKTSGYTFTEYTMHWMKQSHRKSLEWIGGIVTNNGGTGYNQKFKGKATLTVDKSSSTAYMELRSLTSEDSAVYFCARGSLYSYGNSYFDYWGQGTLVTVSS VL: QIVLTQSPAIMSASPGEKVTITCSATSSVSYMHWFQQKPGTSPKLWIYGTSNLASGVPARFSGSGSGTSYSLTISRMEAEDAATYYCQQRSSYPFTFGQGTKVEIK 0.87

Now the same for HC-R098H (antibody, V domains shown) VH: EVQLQQSGPELVKPGASVKISCKTSGYTFTEYTMHWMKQSHRKSLEWIGGINTNNGGTGYNQKFKGKATLTVDKSSSTAYMELRSLTSEDSAVYFCAHGSLYSYGNSYFDYWGQGTLVTVSS VL: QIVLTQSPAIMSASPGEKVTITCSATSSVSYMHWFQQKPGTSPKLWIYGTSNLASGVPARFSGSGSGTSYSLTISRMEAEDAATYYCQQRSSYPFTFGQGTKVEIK 0.928

Again, but for HC-A097I (antibody, V domains shown) VH: EVQLQQSGPELVKPGASVKISCKTSGYTFTEYTMHWMKQSHRKSLEWIGGINTNNGGTGYNQKFKGKATLTVDKSSSTAYMELRSLTSEDSAVYFCIRGSLYSYGNSYFDYWGQGTLVTVSS VL: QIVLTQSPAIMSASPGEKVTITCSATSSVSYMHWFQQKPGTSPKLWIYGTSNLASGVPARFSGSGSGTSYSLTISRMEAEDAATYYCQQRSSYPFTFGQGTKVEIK 1.89
